- System: CCRF-CEM leukemia
- Protocol notes: NCI tumour cell line growth inhibition, 48 h
# maps each entry to its TGI
Assay endpoint: TGI (µM)

INSERT INTO results (compound, assay_endpoint, relation_qualifier, number) VALUES
  ('CCOP(=O)(CS(C)=O)O[C@@H]1C[C@H](C)CC[C@H]1C(C)C (stereo not given in full)', 'TGI', '=', 11.5),
  ('CCCCCCC(N)(CCCCCC)C(=O)Nn1c(C)ccc1C', 'TGI', '>', 100),
  ('O=C1C(NCCO)=C(N2CC2)C(=O)C(NCCO)=C1N1CC1', 'TGI', '=', 55.9),
  ('CC(=O)Nc1ccc(-c2nnc(SCC(=O)Nc3ccccc3Cl)o2)cc1', 'TGI', '>', 100),
  ('c1ccc(-c2nc(Nc3ccc(-c4nc5ccccc5[nH]4)cc3)nc(N3CCOCC3)n2)cc1', 'TGI', '=', 3.12);
